assayExplanation: gradient 5% acetonitrile 3 min, to 50% in 2 min, to 85% in 15 min, held 3 min, 100 µL/min
experimentalConditions: column: Zorbax Extend-C18 2.1 x 50 mm; eluents: water / acetonitrile, 0.1% formic acid
attributeMeasured: RP-LC retention time (s)
Write the value in s as a bare number.

Observe how each entry below is paired with its result.
COc1ccc(-n2c(=O)c3sccc3n(Cc3nc(-c4ccc(OC(C)C)cc4)no3)c2=O)cc1 : 1060
CN(CCc1noc(-c2ccc(C(=O)NC3CCCC3)cc2)n1)C(=O)c1ccccc1F : 839
CCCNC(=O)CCc1c(C)n(CC)c2nc(-c3ccccc3)nn2c1=O : 697

Suppose we examine the compound COc1ccc(-c2csc3c(=O)n(Cc4cccc(OC)c4)cnc23)cc1 ; what RP-LC retention time value has been reported?
1030

Please give the result for CCN(CC)S(=O)(=O)c1cc(-c2nnc(-c3cccc(C)c3)o2)ccc1Cl too.
1200

Please give the result for Cc1cc(C(F)F)n2nc(C(=O)Nc3ccc(C)c(C)c3)nc2n1 too.
860

Please give the result for Cc1cccc(NC(=O)CN2CCc3[nH]c4c(C)cc(F)cc4c(=O)c3C2)c1 too.
626

Please give the result for c1cnn(-c2ccc(-c3noc(-c4ccc5c(c4)OCO5)n3)cn2)c1 too.
1170

Please give the result for CCCn1cc(C(=O)Nc2ccc(F)cc2C)c2cccnc21 too.
882
